- assay-target: ENPP-1 ECD (Homo sapiens (Human), UniProt P22413)
- Sequence (P22413 98-925): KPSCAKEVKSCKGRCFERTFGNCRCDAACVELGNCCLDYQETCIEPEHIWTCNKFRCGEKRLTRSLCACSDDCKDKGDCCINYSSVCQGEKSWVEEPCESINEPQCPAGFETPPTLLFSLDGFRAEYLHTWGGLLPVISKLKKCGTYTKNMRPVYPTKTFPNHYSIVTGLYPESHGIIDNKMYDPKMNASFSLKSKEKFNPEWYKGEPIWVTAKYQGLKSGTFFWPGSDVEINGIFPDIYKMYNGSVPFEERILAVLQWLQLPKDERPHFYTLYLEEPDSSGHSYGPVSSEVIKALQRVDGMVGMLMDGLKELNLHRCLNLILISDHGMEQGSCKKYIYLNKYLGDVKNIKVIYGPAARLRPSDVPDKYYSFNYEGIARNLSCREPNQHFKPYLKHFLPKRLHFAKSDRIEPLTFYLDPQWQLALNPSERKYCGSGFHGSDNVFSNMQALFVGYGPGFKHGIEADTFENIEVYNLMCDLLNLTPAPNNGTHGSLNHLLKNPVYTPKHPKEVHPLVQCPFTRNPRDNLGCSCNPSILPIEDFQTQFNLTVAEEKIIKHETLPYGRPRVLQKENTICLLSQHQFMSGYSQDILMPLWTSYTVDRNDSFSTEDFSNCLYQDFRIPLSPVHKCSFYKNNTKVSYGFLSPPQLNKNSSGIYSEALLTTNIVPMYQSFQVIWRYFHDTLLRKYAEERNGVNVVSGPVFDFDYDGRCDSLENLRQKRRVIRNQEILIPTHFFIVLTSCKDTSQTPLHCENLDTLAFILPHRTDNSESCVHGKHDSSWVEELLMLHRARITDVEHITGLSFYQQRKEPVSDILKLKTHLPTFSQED
- measurement-protocol: Assay 2: inhibition of ENPP1 hydrolysis of 2′,3′-cGAMP (AMP-Glo, […] enzyme)
- measurement-context: Assay 2 (KI), ENPP1 hydrolysis of 2′,3′-cGAMP, AMP-Glo, […] ENPP-1, 24 μM cGAMP
# key: entry, value: Ki

// returns reported Ki for input COc1cc2ncnc(OCc3ccc(S(C)(=N)=O)cc3)c2cc1OC (stereo not drawn)
3 to 300 nM

Entry to check: COc1ccc2c(-c3ccc4c(c3)CN(S(C)(=N)=O)CC4)ccnc2n1 (stereo not drawn)
3 to 300 nM

Input COc1ccc2c(Oc3ccc(S(=N)(=O)CC4CC4)cc3)ccnc2c1 (stereo not drawn)
< 3 nM

Here is the next compound: COc1cc2nccc(N3CCC(CNS(C)(=N)=O)CC3)c2cc1Cl (stereo not drawn)
< 3 nM

Okay, and COc1cc2ncnc(N3CCC(CCS(C)(=N)=O)CC3)c2cc1OC (stereo not drawn) ?
< 3 nM

Then COc1cccc2c(N3CCC(CS(C)(=N)=O)CC3)ncnc12 (stereo not drawn) ?
< 3 nM

Same for CCS(=N)(=O)c1ccc(Oc2ccnc3cc(OC)ccc23)cc1 (stereo not drawn)
< 3 nM

Same read-out for "COc1cc2nccc(Oc3ccc([S@](C)(=N)=O)cc3)c2cc1OC" ?
> 300 nM

Please do the same for COc1cc2ncnc(-c3ccc4c(c3)CN(S(C)(=N)=O)CC4)c2cc1OC (stereo not drawn) as well.
< 3 nM

Entry source: patent US11780849B2
